MEASURED TARGET: human 5-HT2C receptor (Homo sapiens, UniProt P28335)
Sequence (P28335 33-458): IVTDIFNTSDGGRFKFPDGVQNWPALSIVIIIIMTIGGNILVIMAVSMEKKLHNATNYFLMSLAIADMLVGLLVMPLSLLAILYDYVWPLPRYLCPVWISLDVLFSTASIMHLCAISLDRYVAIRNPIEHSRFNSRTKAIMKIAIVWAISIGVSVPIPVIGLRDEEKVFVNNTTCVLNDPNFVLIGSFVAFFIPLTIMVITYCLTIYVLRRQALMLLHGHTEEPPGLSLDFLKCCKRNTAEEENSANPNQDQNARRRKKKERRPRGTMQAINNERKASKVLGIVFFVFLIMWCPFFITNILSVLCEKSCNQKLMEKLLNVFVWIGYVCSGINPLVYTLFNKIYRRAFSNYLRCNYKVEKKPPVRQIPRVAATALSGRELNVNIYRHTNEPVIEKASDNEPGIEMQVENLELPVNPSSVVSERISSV
TEST NAME: 5-HT2C receptor-stimulated calcium mobilization (FLIPR) in CHO cells;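 also: Fluo-3-AM fluorescence read on FLIPR every 1 s, agonist added after 10 baseline reads, response taken as peak minus lowest raw fluorescence count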
Format: cell-based
CONDITION LABEL: calcium mobilization, CHO cells stably expressing human 5-HT2C; read-out: 5-HT2C Function EC50
pEC50: −log10 of the molar value.
Reported pEC50 values are given for each entry in this list.
READOUT KIND: pEC50

| COMPOUND | READOUT KIND | VALUE MEASURED |
| --- | --- | --- |
| CNCC1Cc2cc(OC)cc(-c3ccccc3F)c2O1 (racemic) [Example 491] | pEC50 | 6.70 |
| NCC1Cc2cc(Cl)cc(-c3ccc(F)cc3F)c2O1 (racemic) [Example 250] | pEC50 | 7.14 |
| COc1ccccc1-c1cccc2c1OC(CN)C2 (single isomer, unassigned; (+)) [Example 128] | pEC50 | 7.62 |
| CNCC1Cc2cc(F)cc(-c3cc(Cl)ccc3Cl)c2O1 (single isomer, unassigned; (+)) [Example 450] | pEC50 | 9.10 |
| CNCC1Cc2cc(Cl)cc(-c3cccc(C)c3C)c2O1 (racemic) [Example 465] | pEC50 | 6.30 |
| CNCC1Cc2cccc(-c3cc(C)ccc3C)c2O1 (racemic) [Example 427] | pEC50 | 6.53 |
| NCC1Cc2cccc(-c3cccc(F)c3F)c2O1 (racemic) [Example 160] | pEC50 | 7.49 |
| NCC1Cc2cccc(-c3ccc(C(F)(F)F)cc3)c2O1 (single isomer, unassigned; (-)) [Example 138] | pEC50 | 5.42 |
| COc1ccc(-c2cccc3c2OC(CN)C3)c(OC)c1 (single isomer, unassigned; (-)) [Example 144] | pEC50 | 8.40 |
| Cc1ccccc1-c1cccc2c1OC(CN)C2 (single isomer, unassigned; (+)) [Example 48] | pEC50 | 8.62 |
| Cc1cc(Cl)ccc1-c1cccc2c1OC(CN)C2 (single isomer, unassigned; (+)) [Example 158] | pEC50 | 7.38 |
| COc1ccc(-c2cc(F)cc3c2OC(CN)C3)cc1 (racemic) [Example 202] | pEC50 | 6.98 |

The reported measurements were obtained from patent US7435837B2.
